target: hGIPR (Homo sapiens, UniProt P48546); assay: Functional cAMP activation in the presence of 0.1% casein (no HSA); format: cell-based; conditions: in the presence of 0.1% casein (no HSA); geometric mean; read-out: Relative cAMP EC50, hGIPR;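 also: intracellular cAMP rise after 30 min at 37 °C read by HTRF against a standard curve, scaled between buffer alone (0%) and top control ligand concentration (100%), four-parameter fit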
Sequence (P48546 22-466): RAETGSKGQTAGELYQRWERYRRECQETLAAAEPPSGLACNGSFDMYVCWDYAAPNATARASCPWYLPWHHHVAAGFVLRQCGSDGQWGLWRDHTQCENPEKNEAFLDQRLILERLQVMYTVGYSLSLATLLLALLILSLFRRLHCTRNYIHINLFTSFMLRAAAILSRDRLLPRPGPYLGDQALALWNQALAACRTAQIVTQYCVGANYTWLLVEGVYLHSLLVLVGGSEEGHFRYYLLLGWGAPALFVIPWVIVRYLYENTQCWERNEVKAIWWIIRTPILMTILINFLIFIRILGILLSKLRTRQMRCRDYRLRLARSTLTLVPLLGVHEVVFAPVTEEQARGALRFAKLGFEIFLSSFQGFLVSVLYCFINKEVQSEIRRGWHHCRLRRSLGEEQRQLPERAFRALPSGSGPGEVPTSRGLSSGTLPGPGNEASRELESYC
Starred links: 1 amine or outer side, 2 acyl side, 3 side chain; linkers in the order of their positions; H or OH if unused. Non-standard residues stand in square brackets, D forms with d. Groups on a side chain read outwards from the residue. No end group written: not given here. *: point of attachment. C20 diacid = O=C(O)CCCCCCCCCCCCCCCCCCC(=O)*; C18 diacid = O=C(O)CCCCCCCCCCCCCCCCC(=O)*; αMePhe(2-F) = C[C@](N)(Cc1ccccc1F)C(=O)O; γGlu = O=C(O)[C@H](CCC(=O)[*:2])N[*:1]; αMe4Pal = C[C@](N)(Cc1ccncc1)C(=O)O; αMeY = C[C@](N)(Cc1ccc(O)cc1)C(=O)O; 4Pal = N[C@@H](Cc1ccncc1)C(=O)O; αMeL = CC(C)C[C@](C)(N)C(=O)O; αMeS = C[C@](N)(CO)C(=O)O; Iva = CC[C@](C)(N)C(=O)O; Orn = NCCC[C@H](N)C(=O)O; Dab = NCC[C@H](N)C(=O)O; Dap = NC[C@H](N)C(=O)O; AEEA = NCCOCCOCC(=O)O; Aib = CC(C)(N)C(=O)O
Quick list: EC50 per entry.
Number in nM, nothing else.

H-Y[Aib]QGTFTSD[4Pal]SQ[αMeL]LDKK([γGlu-γGlu-C18 diacid])AQ[αMe4Pal]AFIE[αMe4Pal]LIE[Aib]GPSSGAPPPSGE-NH2 [Example 1120]    0.096

// EC50 (hGIPR (Homo sapiens, UniProt P48546)) for H-Y[Aib]QGTFTSDYS[Dap][αMeL]LDKK([AEEA-γGlu-C18 diacid])AQ[Aib]AFIEYLLEGGESSGAPPPSGS-NH2 [Example 360] = 0.45

// EC50 (hGIPR (Homo sapiens, UniProt P48546)) for H-Y[Aib]QGTFTSDFS[Orn][αMeL]LDKK([AEEA-γGlu-C18 diacid])AQ[Aib]AFIEWLLEGGPSSGAPPPSGS-NH2 [Example 168] = 0.233

// EC50 (hGIPR (Homo sapiens, UniProt P48546)) for H-Y[Aib]QGTFTSD[4Pal]S[Orn][αMeL]LDKK([γGlu-γGlu-C18 diacid])AQ[αMe4Pal]AFIE[αMeY]LIAGGPSSGEPPPSGS-NH2 [Example 1014] = 0.0412

// EC50 (hGIPR (Homo sapiens, UniProt P48546)) for H-Y[Aib]QGTFTSDFS[Orn][αMeL]LDKK([AEEA-γGlu-C20 diacid])AQ[Aib]AFIEYLLAGGPSSGAPPPSGE-NH2 [Example 82] = 0.302

// EC50 (hGIPR (Homo sapiens, UniProt P48546)) for Y[Aib]QGTFTSDFS[Orn][αMeL]LDKK([AEEA-γGlu-C18 diacid])AQ[Aib]AFIEYLIE[Aib]GPSSGAPPPSGS-NH2 [Example 796] = 0.098

// EC50 (hGIPR (Homo sapiens, UniProt P48546)) for H-Y[Aib]QGTFTSD[4Pal]SR[αMeL]LDKK([AEEA-γGlu-C18 diacid])AQ[Aib]AFIE[αMeY]LIEGGPSSGAPPPSGS-NH2 [Example 837] = 0.209

// EC50 (hGIPR (Homo sapiens, UniProt P48546)) for H-Y[Aib]QGTFTSD[4Pal]SQ[αMeL]LD[Orn]K([AEEA-γGlu-C18 diacid])AQ[αMe4Pal]AFIE[αMeY]LIEGGPSSGAPPPSGSEE-NH2 [Example 1041] = 0.365

// EC50 (hGIPR (Homo sapiens, UniProt P48546)) for H-Y[Aib]QGTFTSD[4Pal]SR[αMeL]LDKK([AEEA-γGlu-C18 diacid])AQ[Aib]AFIEYLIE[Aib]SPSSGAPPPSGS-NH2 [Example 807] = 0.108

// EC50 (hGIPR (Homo sapiens, UniProt P48546)) for H-Y[Aib]QGTFTSDFSK[αMeL]LDKK([AEEA-γGlu-C20 diacid])AQ[Aib]AFIEYLLAGGPSSGAPPPSGS-NH2 [Example 14] = 0.17

// EC50 (hGIPR (Homo sapiens, UniProt P48546)) for Y[Aib]QGTFTSD[4Pal][αMeS]Q[αMeL]LD[Orn]K([dE-γGlu-C18 diacid])AQ[Iva]QFIQ[αMeY]LLE[Aib]GPSSGAPPPSGGGE-NH2 [Example 1139] = 0.0431

// EC50 (hGIPR (Homo sapiens, UniProt P48546)) for H-Y[Aib]QGT[αMePhe(2-F)]TSDYSKLLDKIAQK([AEEA-γGlu-C20 diacid])AFIEYLIEGGPSSGAPPPEGE-NH2 [Example 357] = 0.077

// EC50 (hGIPR (Homo sapiens, UniProt P48546)) for H-Y[Aib]QGTFTSD[4Pal]SR[αMeL]LDKK([AEEA-γGlu-C18 diacid])AQ[αMe4Pal]AFIEYLIE[Aib]GESSGAPPPSGE-NH2 [Example 225] = 0.213

// EC50 (hGIPR (Homo sapiens, UniProt P48546)) for H-Y[Aib]QGTFTSD[4Pal]SQ[αMeL]LD[Orn]K([dE-γGlu-C18 diacid])AQ[αMe4Pal]QFIE[αMeY]LLAGGPSSGAPPPSGSEEE-NH2 [Example 1084] = 0.0975

// EC50 (hGIPR (Homo sapiens, UniProt P48546)) for Y[Aib]QGTFTSD[4Pal]SR[αMeL]LDKK([AEEA-γGlu-C18 diacid])AQ[αMe4Pal]AFIE[αMeY]LIEGGPSSGAPPPSGS-NH2 [Example 843] = 0.334

// EC50 (hGIPR (Homo sapiens, UniProt P48546)) for H-Y[Aib]QGT[αMePhe(2-F)]TSD[4Pal][αMeS]I[αMeL]LD[Orn]K([AEEA-γGlu-γGlu-C18 diacid])AQ[αMe4Pal]EFI[dE][αMeY]LIEGGPSSGAPPPSGE-NH2 [Example 1176] = 0.00717

// EC50 (hGIPR (Homo sapiens, UniProt P48546)) for Y[Aib]QGT[αMePhe(2-F)]TSD[4Pal][αMeS]I[αMeL]LD[Orn]K([AEEA-γGlu-C18 diacid])AQ[αMe4Pal]EFI[dE][αMeY]LIEGGPPS[Aib]EPPPEGE-NH2 [Example 1190] = 0.0109

// EC50 (hGIPR (Homo sapiens, UniProt P48546)) for H-Y[Aib]QGTFTSDFSK[αMeL]LDKK([AEEA-γGlu-C20 diacid])AQ[Aib]AFIEYLLAGGPSSGEPPPSEG[AEEA]-NH2 [Example 32] = 0.28

// EC50 (hGIPR (Homo sapiens, UniProt P48546)) for H-Y[Aib]QGTFTSDFS[Dab][αMeL]LDKK([AEEA-γGlu-C18 diacid])AQ[Aib]AFIEYLIE[Aib]GPSSGAPPPSGS-NH2 [Example 799] = 0.0668

// EC50 (hGIPR (Homo sapiens, UniProt P48546)) for H-Y[Aib]QGTFTSD[4Pal]SR[αMeL]LDKK([γGlu-γGlu-C18 diacid])AQ[αMe4Pal]AFIEYLIAGGESSGAPPPSGSEE-NH2 [Example 965] = 0.13

// EC50 (hGIPR (Homo sapiens, UniProt P48546)) for H-Y[Aib]QGTFTSD[4Pal]SQ[αMeL]LDKK([AEEA-γGlu-C18 diacid])AQ[αMe4Pal]AFIEYLIAGGPSSGAPPPSGSEE-NH2 [Example 1029] = 0.163

// EC50 (hGIPR (Homo sapiens, UniProt P48546)) for H-Y[Aib]QGTFTSD[4Pal]SQ[αMeL]LDKK([γGlu-γGlu-C18 diacid])AQ[αMe4Pal]AFIE[αMe4Pal]LIEGGPSSGAPPPSGSEE-NH2 [Example 957] = 0.213
